Catalogue of molecules with associated Cyclophilin affinity 0.25 ug/ml
Target: cyclophilin (Bos taurus, UniProt P62935)
Construct: from tissue; host or cells: purified from tissue cytosol
Sequence (P62935 whole entry): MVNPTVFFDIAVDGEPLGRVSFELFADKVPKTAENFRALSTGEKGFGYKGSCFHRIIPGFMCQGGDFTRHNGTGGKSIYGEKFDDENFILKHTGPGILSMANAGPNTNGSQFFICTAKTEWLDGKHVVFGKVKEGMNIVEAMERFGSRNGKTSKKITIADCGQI
Assay: Cyclophilin affinity: enhancement of the intrinsic tryptophan fluorescence of cyclophilin by CsA or analogs
Assay type: binding
Conditions: ligand 0.25 ug/ml, 5 ug/ml cyclophilin, pH 7.2
Where a SMILES comes first, the peptide text is derived from it. [ ]: non-standard residue; d: D form. NMe(dihydroBmt) = CCCC[C@@H](C)[C@@H](O)[C@H](NC)C(=O)O; NMeL = CN[C@@H](CC(C)C)C(=O)O; NMeV = CN[C@H](C(=O)O)C(C)C; Sar = CNCC(=O)O
Lab note: record just the number, no unit beside it.

# annotated cases, reported Cyclophilin affinity 0.25 ug/ml shown
CCCC[C@@H](C)[C@@H](O)[C@H]1C(=O)N[C@@H](C(C)C)C(=O)N(C)CC(=O)N(C)[C@@H](CC(C)C)C(=O)N[C@@H](C(C)C)C(=O)N(C)[C@@H](CC(C)C)C(=O)N[C@@H](C)C(=O)N[C@H](C)C(=O)N(C)[C@@H](CC(C)C)C(=O)N(C)[C@@H](CC(C)C)C(=O)N(C)[C@@H](C(C)C)C(=O)N1C [Dihydro-CsD] (cyclo(A[dA][NMeL][NMeL][NMeV][NMe(dihydroBmt)]V[Sar][NMeL]V[NMeL])); 0.19
C/C=C/C[C@@H](C)[C@@H](O)[C@H]1C(=O)N[C@@H](C(C)C)C(=O)N(C)CC(=O)N(C)[C@@H](CC(C)C)C(=O)N[C@@H](C(C)C)C(=O)N(C)[C@@H](CC(C)C)C(=O)N[C@@H](C)C(=O)N[C@H](C)C(=O)N(C)[C@@H](CC(C)C)C(=O)N(C)[C@@H](CC(C)C)C(=O)N(C)[C@@H](C(C)C)C(=O)N1C [CsD]; 0.21

Note: attention shifts to another entry.
Q) Which Cyclophilin affinity 0.25 ug/ml is listed for C/C=C/C[C@@H](C)[C@@H](OC(C)=O)[C@H]1C(=O)N[C@@H](CC)C(=O)N(C)CC(=O)N(C)[C@@H](CC(C)C)C(=O)N[C@@H](C(C)C)C(=O)N(C)[C@@H](CC(C)C)C(=O)N[C@@H](C)C(=O)N[C@H](C)C(=O)N(C)[C@@H](CC(C)C)C(=O)N(C)[C@@H](CC(C)C)C(=O)N(C)[C@@H](C(C)C)C(=O)N1C [O-Acetyl-CsA] ?
A) -0.02

Data credit: patent US5047512A
